We begin with a simple list: items and their reported MFI.
- Assayed System: T1, human ROR1 on cell lines (human, UniProt Q01973 30-937)
- T1 construct: Jeko-1 'bearing the ROR1 antigen'); also called Receptor tyrosine kinase-like orphan receptor 1
- T1 sequence (Q01973 30-937 limits assumed): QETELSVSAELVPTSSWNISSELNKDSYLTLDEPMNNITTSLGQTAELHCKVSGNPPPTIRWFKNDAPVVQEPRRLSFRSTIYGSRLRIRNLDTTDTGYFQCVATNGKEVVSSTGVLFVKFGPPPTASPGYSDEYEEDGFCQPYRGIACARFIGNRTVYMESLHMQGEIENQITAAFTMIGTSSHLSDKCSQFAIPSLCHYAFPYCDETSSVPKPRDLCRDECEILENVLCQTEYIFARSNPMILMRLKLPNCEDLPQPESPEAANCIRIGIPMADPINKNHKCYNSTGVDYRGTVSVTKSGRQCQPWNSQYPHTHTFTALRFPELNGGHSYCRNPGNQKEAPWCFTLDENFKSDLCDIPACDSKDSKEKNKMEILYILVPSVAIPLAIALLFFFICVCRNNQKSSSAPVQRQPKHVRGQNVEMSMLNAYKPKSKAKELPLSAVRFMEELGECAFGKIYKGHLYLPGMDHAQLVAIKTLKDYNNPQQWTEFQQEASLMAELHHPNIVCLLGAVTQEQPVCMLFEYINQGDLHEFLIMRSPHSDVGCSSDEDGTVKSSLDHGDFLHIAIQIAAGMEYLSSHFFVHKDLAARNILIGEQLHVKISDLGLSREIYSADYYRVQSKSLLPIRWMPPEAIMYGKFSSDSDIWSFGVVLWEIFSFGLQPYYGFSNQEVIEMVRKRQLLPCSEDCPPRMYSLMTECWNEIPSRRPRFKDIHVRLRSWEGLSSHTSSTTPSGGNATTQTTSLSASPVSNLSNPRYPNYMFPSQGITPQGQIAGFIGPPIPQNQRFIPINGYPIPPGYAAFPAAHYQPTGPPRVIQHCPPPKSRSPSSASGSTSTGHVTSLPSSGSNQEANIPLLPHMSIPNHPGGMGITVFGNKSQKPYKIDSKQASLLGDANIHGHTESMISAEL
- Test Method Notes: flow cytometry on Jeko-1 cells, FITC secondary, 4 C (on ice) T0 (secondary only 242)
// return just the number, without any unit appended

Record excerpt, results attached:
2A2-CH1/C-Terminal double tag (antibody, V domains shown, tags in CH1 and at the C-terminus (sequences and positions not given), The protocol speaks of 'each ADC', so a payload may be attached; none is named; also called CH1/CT double-tagged 2A2) VH: QVQLQQSGAELVRPGASVTLSCKASGYTFSDYEMHWVIQTPVHGLEWIGAIDPETGGTAYNQKFKGKAILTADKSSSTAYMELRSLTSEDSAVYYCTGYYDYDSFTYWGQGTLVTVSA VL: DIVMTQSQKIMSTTVGDRVSITCKASQNVDAAVAWYQQKPGQSPKLLIYSASNRYTGVPDRFTGSGSGTDFTLTISNMQSEDLADYFCQQYDIYPYTFGGGTKLEIK	1100
2A2-C-Terminal tag (antibody, V domains shown, C-terminal tag on the antibody (sequence not given), The protocol speaks of 'each ADC', so a payload may be attached; none is named; also called CT-tagged 2A2; C-terminal (CT)-tagged 2A2) VH: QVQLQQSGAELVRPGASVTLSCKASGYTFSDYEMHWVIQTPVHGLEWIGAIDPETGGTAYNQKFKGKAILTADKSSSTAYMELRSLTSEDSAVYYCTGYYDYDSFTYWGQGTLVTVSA VL: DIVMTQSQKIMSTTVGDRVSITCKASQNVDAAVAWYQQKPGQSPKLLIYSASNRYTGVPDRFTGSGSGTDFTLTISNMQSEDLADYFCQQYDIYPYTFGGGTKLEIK	990
2A2-untagged (antibody, V domains shown, also called untagged 2A2) VH: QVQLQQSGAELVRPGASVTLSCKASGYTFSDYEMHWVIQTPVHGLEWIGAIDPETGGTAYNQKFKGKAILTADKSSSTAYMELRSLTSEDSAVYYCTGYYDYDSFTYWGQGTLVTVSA VL: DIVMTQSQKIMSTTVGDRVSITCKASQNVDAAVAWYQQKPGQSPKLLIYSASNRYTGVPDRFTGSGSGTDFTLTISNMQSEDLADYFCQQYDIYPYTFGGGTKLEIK	1070

Give MFI for 2A2-CH1 tag (antibody, V domains shown, tag in CH1 (sequence and position not given), The protocol speaks of 'each ADC', so a payload may be attached; none is named; also called CH1-tagged 2A2) VH: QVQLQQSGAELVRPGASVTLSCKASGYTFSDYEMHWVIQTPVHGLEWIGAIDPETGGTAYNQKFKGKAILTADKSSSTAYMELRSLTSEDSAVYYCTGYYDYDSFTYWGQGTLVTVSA VL: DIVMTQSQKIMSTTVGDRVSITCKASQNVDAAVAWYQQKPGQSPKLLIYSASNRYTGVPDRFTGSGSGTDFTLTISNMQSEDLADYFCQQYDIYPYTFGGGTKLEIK
1100
